Source of measurements: paper PMC10786891

Biological target: T1, EsCas13d, nuclease-dead (Eubacterium siraeum, UniProt B0MS50, R295A;H300A;R849A;H854A)
T1 sequence: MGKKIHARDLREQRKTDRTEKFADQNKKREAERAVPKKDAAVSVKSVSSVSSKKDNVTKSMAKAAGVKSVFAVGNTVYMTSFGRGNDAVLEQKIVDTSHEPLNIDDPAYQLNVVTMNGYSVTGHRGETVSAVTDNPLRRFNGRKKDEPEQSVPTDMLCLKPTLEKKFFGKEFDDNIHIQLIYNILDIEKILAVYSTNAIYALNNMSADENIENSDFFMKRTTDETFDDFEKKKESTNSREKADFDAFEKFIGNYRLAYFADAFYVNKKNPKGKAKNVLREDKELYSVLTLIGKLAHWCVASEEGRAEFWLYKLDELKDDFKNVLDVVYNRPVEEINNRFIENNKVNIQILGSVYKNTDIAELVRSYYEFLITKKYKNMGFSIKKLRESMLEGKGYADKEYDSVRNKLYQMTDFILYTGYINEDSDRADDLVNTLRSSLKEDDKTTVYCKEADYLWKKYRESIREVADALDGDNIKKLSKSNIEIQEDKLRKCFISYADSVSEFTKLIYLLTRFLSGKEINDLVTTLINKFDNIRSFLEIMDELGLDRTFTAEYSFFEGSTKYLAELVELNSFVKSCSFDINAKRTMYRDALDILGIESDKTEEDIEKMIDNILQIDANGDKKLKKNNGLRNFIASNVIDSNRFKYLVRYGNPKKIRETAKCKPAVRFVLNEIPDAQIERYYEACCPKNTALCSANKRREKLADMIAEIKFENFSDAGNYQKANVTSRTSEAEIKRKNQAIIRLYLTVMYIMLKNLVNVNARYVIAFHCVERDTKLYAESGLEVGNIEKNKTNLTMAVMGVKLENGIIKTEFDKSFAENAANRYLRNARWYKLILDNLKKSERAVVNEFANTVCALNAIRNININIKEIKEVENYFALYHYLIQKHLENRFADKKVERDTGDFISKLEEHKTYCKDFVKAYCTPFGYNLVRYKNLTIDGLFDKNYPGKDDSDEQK
Assay: crRNA (strand 1, pre-loaded); Mg2+; 40 mM Tris-HCl pH 7.5, 150 mM NaCl, 6 mM MgCl2, 1 mM DTT, 0.1% Tween-20, 0.2 mg/ml BSA; 25 C; 10 min per concentration, then washed
Settings: tags: His6-TwinStrep-SUMO cleaved; N-terminal SNAP kept (SNAP-Surface 488); label: 3' end held by stalled T7 RNA polymerase
propertyLabel: pKd
// scale note: pKd = -log10(conc_M); give the bare number

Enquiry: pKd for target 2 MT 5'PFS GUC 3'PFS AAG (mixed) RNA 1: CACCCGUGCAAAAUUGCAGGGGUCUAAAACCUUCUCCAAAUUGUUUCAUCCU RNA 2: GGGAAUGGAUCCACAUCUACGAAUUCGUCAGGAUGAAACAAUUUGGAGAAGAAGAGAUCGGAAGAGCACACGU ?
Return: 7.77

Enquiry: I have this binder here, target 1 insU 3' of 7 (mixed) RNA 1: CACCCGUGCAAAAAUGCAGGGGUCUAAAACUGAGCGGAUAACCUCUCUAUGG RNA 2: GGGAAUGGAUCCACAUCUACGAAUUCGUACCAUAGAGAGGUUAUCUCGCUCACCGAGAUCGGAAGAGCACACGU , and I need its recorded pKd.
Return: 7.83

Enquiry: Looking for the measured pKd of target 3 C6G (mixed) RNA 1: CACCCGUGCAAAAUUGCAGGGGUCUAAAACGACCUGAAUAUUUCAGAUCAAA RNA 2: GGGAAUGGAUCCACAUCUACGAAUUCGUUUUUGAUCUGAAAUAUUGAGGUCUGCAGAUCGGAAGAGCACACGU , can you help?
Return: 7.69

Enquiry: Can you share its pKd? I mean this binder: target 2 MT 5'PFS CUC 3'PFS UUC (mixed) RNA 1: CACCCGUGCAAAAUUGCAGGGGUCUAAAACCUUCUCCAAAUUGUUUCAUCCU RNA 2: GGGAAUGGAUCCACAUCUACGAAUUCCUCAGGAUGAAACAAUUUGGAGAAGUUCAGAUCGGAAGAGCACACGU
Return: 8.19

Enquiry: Which pKd value belongs to target 1 MT 5'PFS GGG 3'PFS ACA (mixed) RNA 1: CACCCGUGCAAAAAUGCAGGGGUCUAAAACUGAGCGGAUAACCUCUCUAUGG RNA 2: GGGAAUGGAUCCACAUCUACGAAUUCGGGCCAUAGAGAGGUUAUCCGCUCAACAAGAUCGGAAGAGCACACGU ?
Return: 7.55

Enquiry: GET /values?readout=pKd&item= target 1 C7A,C22A (mixed) RNA 1: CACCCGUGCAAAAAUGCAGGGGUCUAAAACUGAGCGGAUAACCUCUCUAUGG RNA 2: GGGAAUGGAUCCACAUCUACGAAUUCGUAACAUAGAGAGGUUAUACGCUCACCGAGAUCGGAAGAGCACACGU
Return: 7.92

Enquiry: What does the record list as pKd for target 1 C2A,U3C (mixed) RNA 1: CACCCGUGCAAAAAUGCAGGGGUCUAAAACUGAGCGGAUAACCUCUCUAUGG RNA 2: GGGAAUGGAUCCACAUCUACGAAUUCGUACCAUAGAGAGGUUAUCCGCCAACCGAGAUCGGAAGAGCACACGU ?
Return: 7.89

Enquiry: Any idea what its pKd is? The binder is target 2 MT 5'PFS ACG 3'PFS AGA (mixed) RNA 1: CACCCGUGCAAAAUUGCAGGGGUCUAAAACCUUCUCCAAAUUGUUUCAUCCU RNA 2: GGGAAUGGAUCCACAUCUACGAAUUCACGAGGAUGAAACAAUUUGGAGAAGAGAAGAUCGGAAGAGCACACGU
Return: 8.11

Enquiry: Item under review: target 1 U3G,U19C (mixed) RNA 1: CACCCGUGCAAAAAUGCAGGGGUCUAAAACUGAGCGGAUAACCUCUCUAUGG RNA 2: GGGAAUGGAUCCACAUCUACGAAUUCGUACCACAGAGAGGUUAUCCGCGCACCGAGAUCGGAAGAGCACACGU . Reported pKd?
Return: 7.60

Enquiry: Would you mind telling me what pKd value was observed for target 2 MT 5'PFS GCU 3'PFS AAC (mixed) RNA 1: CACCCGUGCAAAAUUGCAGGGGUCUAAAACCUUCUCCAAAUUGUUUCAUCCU RNA 2: GGGAAUGGAUCCACAUCUACGAAUUCGCUAGGAUGAAACAAUUUGGAGAAGAACAGAUCGGAAGAGCACACGU ?
Return: 8.00

Enquiry: Dear colleague, I am looking for the recorded pKd of the following binder: target 1 complement block 3-11 (mixed) RNA 1: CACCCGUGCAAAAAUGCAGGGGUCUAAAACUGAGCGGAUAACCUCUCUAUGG RNA 2: GGGAAUGGAUCCACAUCUACGAAUUCGUACCAUAGAGAGGAAUAGGCGACACCGAGAUCGGAAGAGCACACGU
Return: 7.89

Enquiry: Suppose we examine the binder target 1 MT 5'PFS UCG 3'PFS CUU (mixed) RNA 1: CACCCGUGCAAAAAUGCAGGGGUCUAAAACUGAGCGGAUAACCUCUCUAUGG RNA 2: GGGAAUGGAUCCACAUCUACGAAUUCUCGCCAUAGAGAGGUUAUCCGCUCACUUAGAUCGGAAGAGCACACGU ; what pKd value has been reported?
Return: 7.61

Enquiry: Consider the binder target 1 A1G,C7A (mixed) RNA 1: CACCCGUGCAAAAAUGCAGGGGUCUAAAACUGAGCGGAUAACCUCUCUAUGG RNA 2: GGGAAUGGAUCCACAUCUACGAAUUCGUACCAUAGAGAGGUUAUACGCUCGCCGAGAUCGGAAGAGCACACGU and give its measured pKd.
Return: 8.06

Enquiry: pKd for target 2 MT 5'PFS UAC 3'PFS ACC (mixed) RNA 1: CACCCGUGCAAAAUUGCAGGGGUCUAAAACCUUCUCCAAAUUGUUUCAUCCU RNA 2: GGGAAUGGAUCCACAUCUACGAAUUCUACAGGAUGAAACAAUUUGGAGAAGACCAGAUCGGAAGAGCACACGU ?
Return: 8.01

Enquiry: Query (binder): target 1 MT 5'PFS AUA 3'PFS ACU (mixed) RNA 1: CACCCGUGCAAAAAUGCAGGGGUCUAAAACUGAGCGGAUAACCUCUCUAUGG RNA 2: GGGAAUGGAUCCACAUCUACGAAUUCAUACCAUAGAGAGGUUAUCCGCUCAACUAGAUCGGAAGAGCACACGU ; field requested: pKd
Return: 7.81
